biological target: SARS-CoV-2 Main Protease (SARS-CoV-2) (UniProt P0DTD1); settings: 50.0 µM
measurementLabel: inhibition (%)
Report the value in % with no unit label.

// worked examples, inhibition included
Ask: Any idea what inhibition was measured for `Cc1nnc(NC(=O)Nc2cccnc2)s1` ?
Result: 7.32

Ask: Do the same for O=C(Nc1nncn1C1CC1)[C@H]1CCOc2ccc(Cl)cc21 (stereo in doubt) please
Result: -7.61

Read the next record carefully.
Ask: Any idea what inhibition was measured for `CC1(C)CN(C(=O)c2ccc(-c3cccc4nc(NC(=O)C5CC5)nn34)cc2)C1` ?
Result: 0.838

====

molecular target: SARS-CoV-2 Main Protease (SARS-CoV-2); details: 50.0 µM
measurementLabel: inhibition (%)
Report the value in % with no unit label.

// worked examples, inhibition included
Ask: Under SARS-CoV-2 Main Protease (SARS-CoV-2): inhibition value of C[C@@H]1COCCN1c1cc(C2([S@](C)(=N)=O)CC2)nc(-c2cncc3[nH]ccc23)n1 (stereo in doubt) ?
Result: 3.82

Ask: Do the same for `CC(=O)N1CCN(S(=O)(=O)C2=CC[SH]=C2)CC1` please
Result: -20.6

Ask: Do the same for `CCOC(=O)c1cc(-c2ccccc2)sc1NC(=O)Cc1csc(-c2ccccc2)n1` please
Result: 97.9

Next:
Ask: Under SARS-CoV-2 Main Protease (SARS-CoV-2): inhibition value of `O=C(CC(=O)N1CCOCC1)NCc1ccccc1` ?
Result: 15.1

Ask: Do the same for CCN(CC1COc2ccccc2O1)C(=O)c1cc(=O)[nH]c2ccc([N+](=O)[O-])cc12 (stereo unspecified) please
Result: -7.35

Ask: Do the same for `O=C1C(=O)N(Cc2ccc(Br)cc2)c2c(Br)cccc21` please
Result: -1.15

Ask: Do the same for `CCNc1ncc(C#N)cc1CN1CCN(C(=O)CCl)CC1` please
Result: 102

====

biological target: UniProt P0DTD1; settings: 50.0 µM
measurementLabel: inhibition (%)
Report the value in % with no unit label.

// worked examples, inhibition included
Ask: Under UniProt P0DTD1: inhibition value of CC(C(=O)Nc1cccc(OC2CC(=O)N2)c1)c1cnccn1 (configuration not stated) ?
Result: 0

Ask: Do the same for `Cc1ccncc1NC(=O)Cc1cncc(Cl)c1` please
Result: 71.4

Ask: Do the same for `O=C(Cc1cccc(Cl)c1)Nn1cnc2ccccc2c1=O` please
Result: 0

Ask: Do the same for Cc1ccc(NC(=O)C(C#N)C(=O)CC(C)C)cc1 (configuration not stated) please
Result: 0

Next:
Ask: Under UniProt P0DTD1: inhibition value of O=C(Cc1cccnc1)Nc1cccc(OC2CC(=O)N2)c1 (configuration not stated) ?
Result: 26.4

Ask: Do the same for `Cc1cc(Br)cc2c1N(CCBr)C(=O)C2=O` please
Result: 95.6

Ask: Do the same for `O=C(C1CCN(c2ccncc2)CC1)N1CCCCC1` please
Result: -0.3

Ask: Do the same for `O=C(Cc1cccnc1)Nc1cc(Cl)ccc1O` please
Result: 6.62

====

Below is a list of entries, each paired with its recorded inhibition value.
target: SARS-CoV-2 Main Protease (SARS-CoV-2); settings: 50.0 µM
Report the value in % with no unit label.

Ask: Any idea what inhibition was measured for `Cc1noc(C)c1NC(=O)Cc1cccc(Cl)c1Cl` ?
Result: -6.85

Ask: Do the same for `O=C(CC(=O)Nc1ccncc1)Nc1ccccc1` please
Result: 12

Ask: Do the same for `O=C(c1cc(=O)[nH]c2ccc(F)cc12)N1CCN(S(=O)(=O)c2ccccc2Cl)CC1` please
Result: 35.1

Ask: Do the same for `O=C(NCc1cnn2ccccc12)c1cccnc1OCCO` please
Result: -28.9

Ask: Do the same for O=C(O)C12CC(CNCc3ccc4c(c3)OCC4)(C1)OC2c1ccccc1 (stereo unspecified) please
Result: -4.27

Ask: Do the same for `O=C(c1cc(=O)[nH]c2ccc(Cl)cc12)N1CCN(S(=O)(=O)c2ccccc2F)CC1` please
Result: 4.42

Ask: Do the same for C=CC(=O)N(c1ccc(C(C)(C)C)cc1)C(C(=O)NCCCSC)c1cccnc1 (stereo unspecified) please
Result: 75.6

Ask: Do the same for `COc1cc(Cl)cc(CC(=O)Nc2cnccc2C)c1` please
Result: 48.3

Ask: Do the same for C=CC(=O)N(c1cc(C(C)(C)C)on1)C(C(=O)NCCc1cccc(F)c1)c1cncc(Cl)c1 (stereo unspecified) please
Result: 40.2

Ask: Do the same for N#CC(C(=O)Nc1cccc(Cl)c1)C(=O)c1cccs1 (stereo unspecified) please
Result: 31.8

Read the next record carefully.
Ask: Any idea what inhibition was measured for `O=C(C1CCN(c2ccncc2)CC1)N1CCCCC1` ?
Result: -18.6

====

Below is a list of entries, each paired with its recorded relative solubility at 20 uM value.
conditions: 20.0 µM
Form rule: numeric answer, no unit written next to it.

Ask: Any idea what relative solubility at 20 uM was measured for C=CC(=O)N(c1ccc(SC)cc1)C(C(=O)Nc1ccc(OC)cc1)c1cccnc1 (stereo not given) ?
Result: 0.91

Read the next record carefully.
Ask: Any idea what relative solubility at 20 uM was measured for `Cc1cccc(C)c1OCC(=O)NCCc1ccccc1` ?
Result: 1

====

settings: 20.0 µM
Below is a list of entries, each paired with its recorded relative solubility at 20 uM value.
Form rule: numeric answer, no unit written next to it.

// worked examples, relative solubility at 20 uM included
Ask: Any idea what relative solubility at 20 uM was measured for C=CC(=O)N(c1ccc(SC)cc1)C(C(=O)Nc1c(C)cccc1CC)c1cccnc1 (stereo not given) ?
Result: 0.85

Ask: Do the same for `O=C(Cn1cccn1)N1CCN(S(=O)(=O)c2cccc(F)c2)CC1` please
Result: 1

Ask: Do the same for `NS(=O)(=O)c1ccc(N2CCC(CN3CCCCCC3)CC2)cc1` please
Result: 0.99

Ask: Do the same for C=CC(=O)N(c1ccc(C(C)(C)C)cc1)C(C(=O)NCC1CCCO1)c1cccnc1 (stereo not given) please
Result: 1

Next:
Ask: Any idea what relative solubility at 20 uM was measured for C=CC(=O)N(c1ccc(C(C)(C)C)cc1)C(C(=O)NCC1CCOC1)c1cccnc1 (stereo not given) ?
Result: 1

Ask: Do the same for O=C(Cc1cccnc1)Nc1cccc(OC2CC(=O)N2)c1 (stereo not given) please
Result: 0.97

Ask: Do the same for CO[C@@H](C)C(=O)Nc1cnccc1C (stereo in doubt) please
Result: 1

Ask: Do the same for CC(C)c1ncncc1NC(=O)C(C)c1cccc(Cl)c1 (stereo not given) please
Result: 1.01

Ask: Do the same for `Cc1cc(C)c(C)c(S(=O)(=O)N2CCN(C(=O)c3cc(=O)[nH]c4ccccc34)CC2)c1C` please
Result: 0.75

Ask: Do the same for `O=C(Cc1cccc(Cl)c1)Nc1nnn[nH]1` please
Result: 1

====

Below is a list of entries, each paired with its recorded relative solubility at 100 uM value.
settings: 100.0 µM
Form rule: numeric answer, no unit written next to it.

// worked examples, relative solubility at 100 uM included
Ask: Any idea what relative solubility at 100 uM was measured for CCOc1ccccc1OC1CCN(C(=O)c2cc(=O)[nH]c3ccc(F)cc23)C1 (stereo unspecified) ?
Result: 0.99

Ask: Do the same for `CC(=O)N1CCN(C(=O)Cc2ccccn2)CC1` please
Result: 1

Ask: Do the same for `N#Cc1cccc(NC(=O)Cc2c[nH]c3ncccc23)c1` please
Result: 0.95

Ask: Do the same for `Cc1nn(-c2ccccc2)c(Nc2cccc(C(F)(F)F)c2)c1NS(C)(=O)=O` please
Result: 0.97

Ask: Do the same for `C#CCN1CCN(C(=O)CCl)CC1` please
Result: 1

Read the next record carefully.
Ask: Any idea what relative solubility at 100 uM was measured for `NS(=O)(=O)c1ccc(N2CCC(c3nc4ccccc4s3)CC2)cc1` ?
Result: 0.52

====

target: SARS-CoV-2 Main Protease (SARS-CoV-2) (UniProt P0DTD1); conditions: 50.0 µM
measurementLabel: inhibition (%)
Report the value in % with no unit label.

// worked examples, inhibition included
Ask: Any idea what inhibition was measured for `O=C(CC(=O)N1CCOCC1)NC1CCCCC1` ?
Result: 0

Ask: Do the same for `Cc1cccc(COC(=O)c2cccc3c2NC(=O)C3=O)c1` please
Result: 83.7

Ask: Do the same for C=CC(=O)N(c1ccc(C(C)(C)C)cc1)C(C(=O)NCCCC(=O)OCC)c1cccnc1 (stereo unspecified) please
Result: 14.6

Next:
Ask: Any idea what inhibition was measured for C=CC(=O)N(c1ccc(C(C)(C)C)cc1)C(C(=O)NC(C)(C)C)c1cncc(OC)c1C (stereo unspecified) ?
Result: 39

Ask: Do the same for CC(NC(=O)c1ccccc1OC1CCCCC1)c1cnccn1 (stereo unspecified) please
Result: 0

Ask: Do the same for CC(c1cccc(NC(=O)Cc2cnccc2Cl)c1)N1CCOCC1 (stereo unspecified) please
Result: 3.87

Ask: Do the same for `O=S(=O)(NCCc1ccccc1)c1ccoc1` please
Result: 16.5

Ask: Do the same for CC(CCc1ccccc1)N1CCN(C(=O)CCl)CC1 (stereo unspecified) please
Result: 91.1

Ask: Do the same for `O=C(NCc1cnn2ccccc12)c1cccnc1OCCO` please
Result: 0

Ask: Do the same for CC(OCC1CCCCO1)C(=O)N(CCc1ccccc1)Cc1cccnc1 (stereo unspecified) please
Result: 0

Ask: Do the same for CC(C)(C)c1ccc(N(C(=O)c2cn[nH]c2)C(C(=O)NCCc2cccc(F)c2)c2cccnc2)cc1 (stereo unspecified) please
Result: 100
